# number of colonies per milliliter, 21 days annotations
# Test system: P. aeruginosa 9027
# Experiment summary: Activity test: preservative challenge test in emulsion, P. aeruginosa 9027
# Assay type: cell-based
# Run parameters: 0.5% preservative in emulsion; 21 days

[[record]]
compound = "C#CCOC(=O)c1ccc(O)c(O)c1 [Propargyl 3,4-Dihydroxybenzoate]"
target_or_test_system = "P. aeruginosa 9027"
result = "< 10 cfu/ml"

[[record]]
compound = "CC=CC=CCOC(=O)c1ccc(O)cc1 [2,4-Hexadienyl-4-Hydroxybenzoate]"
target_or_test_system = "P. aeruginosa 9027"
result = "< 10 cfu/ml"

[[record]]
compound = "C#CCOC(=O)c1ccc(O)c(Cl)c1 [Propargyl 3-Chloro-4-Hydroxybenzoate]"
target_or_test_system = "P. aeruginosa 9027"
result = "< 10 cfu/ml"


Consider now this further compound.
Q: For the compound shown here, CC=CC=CCOC(=O)c1ccc(O)cc1O [2,4-Hexadienyl-2,4-dihydroxybenzoate, 2,4-Hexadienyl-2,4-Dihydroxybenzoate] , give the reported number of colonies per milliliter, 21 days.
Result: < 10 cfu/ml
